- condition.context: human
quantity.measured: Hepatotoxicity (cytolytic)
Form field (numeric): enter value without unit.

See these solved cases before continuing.
# molecule, Hepatotoxicity (cytolytic)
rows = [
    ("CO[C@]12CC[C@@]3(C[C@@H]1[C@](C)(O)C(C)(C)C)[C@H]1Cc4ccc(O)c5c4[C@@]3(CCN1CC1CC1)[C@H]2O5", 2),
    ("COc1cc2nc(N(C)CCCNC(=O)C3CCCO3)nc(N)c2cc1OC (stereo not drawn)", 1),
]

## Task Bench note: what Hepatotoxicity (cytolytic) did CCN[C@@H]1C[C@H](N)[C@@H](O[C@H]2OC(CN)=CC[C@H]2N)[C@H](O)[C@H]1O[C@H]1OC[C@](C)(O)[C@H](NC)[C@H]1O show?
## Result 0

## Task Bench note: what Hepatotoxicity (cytolytic) did CN1CCC[C@@H]1CCO[C@](C)(c1ccccc1)c1ccc(Cl)cc1 show?
## Result 0

## Task Bench note: what Hepatotoxicity (cytolytic) did Oc1ccc(Cl)cc1Cc1cc(Cl)ccc1O show?
## Result 2

----------
- condition.context: human
quantity.measured: Hepatotoxicity (severe hepatitis)

See these solved cases before continuing.
# molecule, data.value
rows = [
    ("NCC(CC(=O)O)c1ccc(Cl)cc1 (stereo not given)", 0),
    ("CC(=O)NCCOC(=O)C(Oc1cccc(C(F)(F)F)c1)c1ccc(Cl)cc1 (stereo not given) [HALOFENATE]", 0),
    ("CCN(CC)CCOC(=O)[C@@H](Cc1cccc2ccccc12)C[C@@H]1CCCO1", 0),
    ("CO[C@@H]1C[C@](C)(O)Cc2cc3c(c(O)c21)C(=O)c1c(O)cc2c(c1C3=O)O[C@@H]1O[C@@]2(C)[C@H](O)[C@@H](N(C)C)[C@@H]1O", 0),
    ("O=C1NCCN1c1ncc([N+](=O)[O-])s1", 0),
    ("CCS(=O)(=O)CCn1c([N+](=O)[O-])cnc1C", 0),
    ("Cc1ccnc2c1NC(=O)c1cccnc1N2C1CC1", 14),
    ("Nc1nc(Cl)nc2c1ncn2[C@H]1C[C@H](O)[C@@H](CO)O1", 0),
    ("CC(C(=O)O)c1ccc(N2CC=CC2)c(Cl)c1 (stereo not given)", 8),
    ("O=C(NO)c1ccc(O)c(O)c1", 0),
]

## Task Bench note: what Hepatotoxicity (severe hepatitis) did O=C(O)C1N=C(c2ccccc2)c2cc(Cl)ccc2NC1=O (stereo not given) [CLORAZEPIC ACID] show?
## Result 0

## Task Bench note: what Hepatotoxicity (severe hepatitis) did Nc1ccc(O)c(C(=O)O)c1 show?
## Result 1

## Task Bench note: what Hepatotoxicity (severe hepatitis) did CC#CCC(C)[C@H](O)/C=C/[C@@H]1[C@H]2c3cccc(CCCC(=O)O)c3O[C@H]2C[C@H]1O (stereo not given in full) show?
## Result 0

## Task Bench note: what Hepatotoxicity (severe hepatitis) did CN1CCN(CCCN2c3ccccc3Sc3ccc(S(=O)(=O)N(C)C)cc32)CC1 show?
## Result 0

## Task Bench note: what Hepatotoxicity (severe hepatitis) did O=c1[nH]c2ccccc2n1CCCN1CCC(n2c(=O)[nH]c3cc(Cl)ccc32)CC1 show?
## Result 0

----------
- condition.context: human
Lab note: compare Hepatotoxicity (cytolytic) with 1, writing 1 (yes) if less and 0 (no) if equal or more.

# compound, label.value
measured = [
    ("O=C(OCC(COC(=O)c1cccnc1)(COC(=O)c1cccnc1)COC(=O)c1cccnc1)c1cccnc1", "1 (yes)"),
]

## Task # strict comparison: is reported Hepatotoxicity (cytolytic) < 1? input = NS(=O)(=O)c1cc2c(cc1Cl)NCNS2(=O)=O [HYDROCHLOROTHIAZIDE]
## Result 0 (no)

## Task # strict comparison: is reported Hepatotoxicity (cytolytic) < 1? input = CO[C@@]1(NC(=O)C(C(=O)[O-])c2ccc(O)cc2)C(=O)N2C(C(=O)[O-])=C(CSc3nnnn3C)CO[C@@H]21.[Na+].[Na+] (stereo partly drawn) [MOXALACTAM DISODIUM]
## Result 1 (yes)

## Task # strict comparison: is reported Hepatotoxicity (cytolytic) < 1? input = CCN1CCCC1CNC(=O)c1cc(S(=O)(=O)CC)c(N)cc1OC (stereo not drawn) [AMISULPRIDE]
## Result 1 (yes)

## Task # strict comparison: is reported Hepatotoxicity (cytolytic) < 1? input = CC(COc1ccccc1)NN (stereo not drawn)
## Result 0 (no)

## Task # strict comparison: is reported Hepatotoxicity (cytolytic) < 1? input = CCC(C)n1ncn(-c2ccc(N3CCN(c4ccc(OCC5COC(Cn6cncn6)(c6ccc(Cl)cc6Cl)O5)cc4)CC3)cc2)c1=O (stereo not drawn)
## Result 0 (no)

## Task # strict comparison: is reported Hepatotoxicity (cytolytic) < 1? input = CCCCC(CC)COC(=O)CC(C(=O)OCC(CC)CCCC)S(=O)(=O)O (stereo not drawn) [DOCUSATE]
## Result 1 (yes)
